All values here come from paper PMC4336329.

Hi there, I'd appreciate the recorded hERG current change (%, negative = inhibition) at 10uM for every entry that follows.
Target: human ether-à-go-go-related gene (hERG) potassium channel (human);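 note: peak tail current of the secondary pulse compared with the same well before compound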
Experiment: primary screen, population patch clamp on CHO cells stably expressing hERG; higher = less effect of the substance
Experimental: Briefly, Chinese hamster ovary (CHO) cells stably expressing the hERG channel were dislodged from tissue culture flasks and dispensed into PPC plates. […] During the recording, background leak currents were estimated by a 100 ms step to -80 mV from an initial holding potential of -70 mV and subtracted from the subsequent current measurement. The campaign was conducted in two phases using slight differences in recording protocol. […]
About 14,000 (4.5%) of roughly 310,000 compounds showed an effect of 50% or more. Effects have a minus sign here. Many of the other results were omitted from the sample, so strong results are more common in it than they were.
Express it in %; write the number only.

Let me check: `CCN1CCN(c2ccc(S(=O)(=O)N3CCCCC3)cc2NC(=O)Cc2c(Cl)cccc2Cl)CC1` , system human ether-à-go-go-related gene (hERG) potassium channel (human), measured hERG current change (%, negative = inhibition) at 10uM is -38.6

Let me check: `CCC(=O)c1ccc(OCC(=O)Nc2cc(S(=O)(=O)N3CCCCC3)ccc2OC)cc1` , system human ether-à-go-go-related gene (hERG) potassium channel (human), measured hERG current change (%, negative = inhibition) at 10uM is -19.8

Let me check: `CCN1CCN(c2ccc(S(=O)(=O)N3CCCCC3)cc2NC(=O)COc2cc(C)ccc2Cl)CC1` , system human ether-à-go-go-related gene (hERG) potassium channel (human), measured hERG current change (%, negative = inhibition) at 10uM is -14.1

Let me check: `Cc1ccc(C)c(CN2CCC(n3nccc3NC(=O)C3CCCC3)CC2)c1` , system human ether-à-go-go-related gene (hERG) potassium channel (human), measured hERG current change (%, negative = inhibition) at 10uM is -69.9

Let me check: `C=CCSc1nccc(-c2nn(-c3ccc(C)cc3)ccc2=O)n1` , system human ether-à-go-go-related gene (hERG) potassium channel (human), measured hERG current change (%, negative = inhibition) at 10uM is -8.82

Let me check: `O=C(CSc1ncccn1)NNC(=O)c1ccccc1` , system human ether-à-go-go-related gene (hERG) potassium channel (human), measured hERG current change (%, negative = inhibition) at 10uM is -4.48

Let me check: `COC(=O)c1ccc(Cl)c(NS(=O)(=O)c2ccc3c(c2)OCCO3)c1` , system human ether-à-go-go-related gene (hERG) potassium channel (human), measured hERG current change (%, negative = inhibition) at 10uM is -25.4

Let me check: `N#Cc1ccc(OCC(=O)Nc2cc(S(=O)(=O)N3CCCCC3)ccc2N2CCCCC2)cc1` , system human ether-à-go-go-related gene (hERG) potassium channel (human), measured hERG current change (%, negative = inhibition) at 10uM is -13.3

Let me check: `COC(=O)c1nnn(CC(=O)NC(=O)Nc2cccc(Cl)c2C)c1C(=O)OC` , system human ether-à-go-go-related gene (hERG) potassium channel (human), measured hERG current change (%, negative = inhibition) at 10uM is -0.536

###

Hi there, I'd appreciate the recorded hERG current change (%, negative = inhibition) at 10uM for every entry that follows.
Molecular target: human ether-à-go-go-related gene (hERG) potassium channel (human, UniProt Q12809);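 note: peak tail current of the secondary pulse compared with the same well before compound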
Sequence (Q12809 whole entry, looked up): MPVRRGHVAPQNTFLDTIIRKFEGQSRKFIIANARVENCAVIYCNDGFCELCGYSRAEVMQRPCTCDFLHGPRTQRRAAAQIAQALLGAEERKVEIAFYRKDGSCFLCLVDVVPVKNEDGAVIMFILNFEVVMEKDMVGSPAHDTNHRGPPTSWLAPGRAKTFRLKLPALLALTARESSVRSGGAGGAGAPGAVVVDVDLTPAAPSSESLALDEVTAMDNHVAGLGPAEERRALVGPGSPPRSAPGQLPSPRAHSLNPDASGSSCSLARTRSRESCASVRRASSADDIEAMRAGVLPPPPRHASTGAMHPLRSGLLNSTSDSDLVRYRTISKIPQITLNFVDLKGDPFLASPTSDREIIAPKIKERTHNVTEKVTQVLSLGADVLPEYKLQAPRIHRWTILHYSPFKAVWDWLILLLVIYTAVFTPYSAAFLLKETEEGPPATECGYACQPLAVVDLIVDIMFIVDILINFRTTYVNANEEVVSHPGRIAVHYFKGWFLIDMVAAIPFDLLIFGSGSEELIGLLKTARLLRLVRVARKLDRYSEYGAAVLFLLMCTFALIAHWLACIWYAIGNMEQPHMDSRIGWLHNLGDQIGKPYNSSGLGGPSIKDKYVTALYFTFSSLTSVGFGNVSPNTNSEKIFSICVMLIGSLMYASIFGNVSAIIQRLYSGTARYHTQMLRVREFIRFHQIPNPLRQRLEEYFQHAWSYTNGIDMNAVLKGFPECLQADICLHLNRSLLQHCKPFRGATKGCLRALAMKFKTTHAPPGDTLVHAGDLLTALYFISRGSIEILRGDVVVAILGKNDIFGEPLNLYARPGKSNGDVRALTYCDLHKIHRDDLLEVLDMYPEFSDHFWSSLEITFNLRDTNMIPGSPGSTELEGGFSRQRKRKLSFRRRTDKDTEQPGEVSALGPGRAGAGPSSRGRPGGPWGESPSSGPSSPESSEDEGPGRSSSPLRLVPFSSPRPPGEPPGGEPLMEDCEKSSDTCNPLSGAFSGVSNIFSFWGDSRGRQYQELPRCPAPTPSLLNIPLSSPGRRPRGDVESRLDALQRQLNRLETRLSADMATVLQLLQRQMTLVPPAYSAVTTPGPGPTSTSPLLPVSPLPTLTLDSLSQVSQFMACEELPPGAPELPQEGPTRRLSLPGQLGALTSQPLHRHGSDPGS
Experiment: primary screen, population patch clamp on CHO cells stably expressing hERG; higher = less effect of the substance
The whole screen tested about 310,000 compounds, of which about 14,000 (4.5%) showed an effect of 50% or more. Effects have a minus sign here. This excerpt belongs to a sample that is enriched for strong results.
Kindly write the number and append the unit.

Reported hERG current change (%, negative = inhibition) at 10uM for `Cc1nnc(SCc2ccccc2)nc1/C=C/NOCc1ccc(Cl)cc1Cl` was 13.9%

Reported hERG current change (%, negative = inhibition) at 10uM for CC(=O)c1ccc(OC(=O)C2CSC3(C)CCC(=O)N23)cc1 (stereo not shown) was 12.4%

Reported hERG current change (%, negative = inhibition) at 10uM for `CC(C)C(=O)Nc1cccc(NC(=O)c2cc3ccccc3o2)c1` was -22%

Reported hERG current change (%, negative = inhibition) at 10uM for `C=CCn1c(SCC(=O)NC(=O)c2cccc([N+](=O)[O-])c2)nnc1-c1ccccc1F` was -15.5%

Reported hERG current change (%, negative = inhibition) at 10uM for `Cn1c(SCC(=O)NC(=O)c2cccc([N+](=O)[O-])c2)nnc1-c1ccc(F)cc1` was -23.3%

Reported hERG current change (%, negative = inhibition) at 10uM for `CN(C)CCn1c2c(c(SCC(=O)Nc3cccc4ccccc34)nc1=O)CCC2` was -13.6%

Reported hERG current change (%, negative = inhibition) at 10uM for `O=C(Cn1nnc(-c2ccccc2NC(=O)c2ccccc2)n1)Nc1ccc2c(c1)OCCO2` was 1.49%

Reported hERG current change (%, negative = inhibition) at 10uM for `O=C(c1ccccc1)N1CCN(Cc2c[nH]c3ccccc23)CC1` was -16.4%

Reported hERG current change (%, negative = inhibition) at 10uM for CC1CCCN(C(=O)c2nn(C)c3c2CSc2ccccc2-3)C1 (stereo not shown) was -11.7%

Reported hERG current change (%, negative = inhibition) at 10uM for Cc1ccc2c(c1)N(C(=O)CCC(=O)NCc1ccccn1)CC(C)O2 (stereo not shown) was -7.23%

Reported hERG current change (%, negative = inhibition) at 10uM for `OCC1(Cc2ccc(Cl)cc2)CCN(Cc2ccc(F)c(F)c2)CC1` was -68.6%

Reported hERG current change (%, negative = inhibition) at 10uM for `O=C(COc1ccc(Br)cc1)N1CCN(Cc2c[nH]c3ccccc23)CC1.O=C(O)C(=O)O` was -57.9%

Reported hERG current change (%, negative = inhibition) at 10uM for O=C(Cc1ccccc1)N1CCN(CC2CC=CCC2)CC1 (stereo not shown) was -3.05%

Reported hERG current change (%, negative = inhibition) at 10uM for `OCC1(Cc2ccc(Cl)cc2)CCN(CCCc2ccccc2)CC1` was -83.9%

Reported hERG current change (%, negative = inhibition) at 10uM for `COc1ccc(-c2ncc3ccccn23)cc1` was -5.24%

Reported hERG current change (%, negative = inhibition) at 10uM for `C=CCn1c(COc2cccc3cccnc23)nnc1SCC(=O)O` was 12.7%

Reported hERG current change (%, negative = inhibition) at 10uM for Cc1ccc(C(=O)N[C@H](C(=O)OCC(=O)NC2CCS(=O)(=O)C2)C(C)C)cc1 (stereo partly shown) was 11.6%

Reported hERG current change (%, negative = inhibition) at 10uM for CCOc1ccccc1C(=O)NC(C(=O)NCc1ccc(F)cc1)C(C)C (stereo not shown) was -14.7%

Reported hERG current change (%, negative = inhibition) at 10uM for `O=C(COc1ccccc1)N1CCN(Cc2c[nH]c3ccccc23)CC1` was -47.4%

Reported hERG current change (%, negative = inhibition) at 10uM for `O=C(CSc1nnc(-c2ccccc2F)n1C1CC1)NC(=O)c1cccc([N+](=O)[O-])c1` was -52.8%

Reported hERG current change (%, negative = inhibition) at 10uM for `CCN(Cc1ccncc1)C(=O)c1cccs1` was 2%

Reported hERG current change (%, negative = inhibition) at 10uM for `OCC1(Cc2ccccc2)CCN(CCCC2CCCC2)CC1` was -76.8%

Reported hERG current change (%, negative = inhibition) at 10uM for `C=CCSc1nnc(C)c(/C=C/Nc2ccc(Cl)cc2)n1` was -9.44%

Reported hERG current change (%, negative = inhibition) at 10uM for `CCN(CC)CCn1c2c(c(SCC(=O)Nc3cccc4ccccc34)nc1=O)CCC2` was -62.7%

Reported hERG current change (%, negative = inhibition) at 10uM for `Cc1csc(SCC(=O)Nc2nnc(C)s2)n1` was 15%

Reported hERG current change (%, negative = inhibition) at 10uM for `O=C(CCn1c(=O)c2ccccc2n(Cc2cc(=O)n3ccccc3n2)c1=O)NCc1ccco1` was -4.21%

Reported hERG current change (%, negative = inhibition) at 10uM for `CN(CCC#N)C(=S)Nc1ccc(Oc2ccccc2)cc1` was -28.6%

Reported hERG current change (%, negative = inhibition) at 10uM for CC1CCC(NC(=O)c2nn(C)c3c2CSc2ccccc2-3)CC1 (stereo not shown) was 3.11%

Reported hERG current change (%, negative = inhibition) at 10uM for `CC(C)(C)c1ccc(-c2noc(CCC(N)=O)n2)cc1` was -11%

Reported hERG current change (%, negative = inhibition) at 10uM for `CNC(=S)NNC(=O)c1cc(C(C)(C)C)nn1Cc1ccc(F)cc1` was 14.6%

Reported hERG current change (%, negative = inhibition) at 10uM for `CC(C)(C)c1ccc(C(=O)NNc2ccc(F)cc2F)cc1` was 9.96%

Reported hERG current change (%, negative = inhibition) at 10uM for `Cc1nnc(SCc2ccc(Cl)cc2)nc1/C=C/N(C)C` was -72.6%

Reported hERG current change (%, negative = inhibition) at 10uM for `O=C(Nc1nc2ccccc2[nH]1)c1cccc(Cl)c1` was 17.5%

Reported hERG current change (%, negative = inhibition) at 10uM for CC1CCCN(CCCNC(=O)c2nn(C)c3c2CSc2ccccc2-3)C1 (stereo not shown) was -72.5%

Reported hERG current change (%, negative = inhibition) at 10uM for `N=c1c(C(=O)NCc2ccco2)cc2c(=O)n3ccccc3nc2n1CCc1ccccc1` was -76.7%

Reported hERG current change (%, negative = inhibition) at 10uM for `O=C(O)c1ccc2c(c1)S(=O)(=O)c1cc(Cl)ccc1C2=O` was 19.5%

Reported hERG current change (%, negative = inhibition) at 10uM for `CC(C)C[C@H](NC(=O)c1nc[nH]c1C(=O)NC1CCN(C(=O)OC(C)(C)C)CC1)C(=O)OCc1ccccc1` was 3.48%

Reported hERG current change (%, negative = inhibition) at 10uM for CC1CCCCN1CCCNC(=O)c1nn(C)c2c1CS(=O)(=O)c1ccccc1-2 (stereo not shown) was -8.49%

Reported hERG current change (%, negative = inhibition) at 10uM for `CCN1CCN(C(=O)Cc2c(C)n(C(=O)c3ccc(Cl)cc3)c3ccc(OC)cc23)CC1.Cl` was -38.6%

Reported hERG current change (%, negative = inhibition) at 10uM for `COc1ccc(-c2nn(-c3ccccc3)cc2N)cc1` was -3.82%
